Examples of molecules with documented IC50 follow.
- system_tested: wild type human HSD17B13 (Homo sapiens (Human))
- method: HEK_Beta-Est LCMS_IC50_Tekcel, whole-cell HEK-HSD17B13 inhibition assay, estrone production by LCMS
- test_parameters: geometric mean, HEK cells stably expressing wild type human HSD17B13, 25 μM FAC beta-estradiol, read-out: HEK_Beta-Est LCMS_IC50—Tekcel GMean IC50
measurement_type: IC50 (nM)

[
  {
    "molecule": "Cc1nsc(-c2ccc3cn([C@H]4CC[C@H](CNC(=O)c5cc(F)c(O)c(F)c5)CC4)nc3c2)n1 [Example 107]",
    "measurement_type": "IC50",
    "assay_result": 160
  },
  {
    "molecule": "O=C(NC[C@]12CC[C@](n3cc4ccc(Br)cc4n3)(CC1)CC2)c1cc(F)c(O)c(F)c1 [Example 205]",
    "measurement_type": "IC50",
    "assay_result": 220
  },
  {
    "molecule": "Cn1cc(-c2ccc3cn([C@H]4CC[C@H](CNC(=O)c5cc(F)c(O)c(F)c5)CC4)nc3c2)cn1 [Example 60]",
    "measurement_type": "IC50",
    "assay_result": 94
  },
  {
    "molecule": "O=C(NC[C@H]1CC[C@H](n2cc3ccc(-c4ncc(C5CC5)s4)cc3n2)CC1)c1cc(F)c(O)c(F)c1 [Example 105]",
    "measurement_type": "IC50",
    "assay_result": 370
  }
]

###

- system_tested: UniProt Q7Z5P4
- method: HEK_Beta-Est LCMS_IC50_Tekcel, whole-cell HEK-HSD17B13 inhibition assay, estrone production by LCMS
- test_parameters: geometric mean, HEK cells stably expressing wild type human HSD17B13, 25 μM FAC beta-estradiol, read-out: HEK_Beta-Est LCMS_IC50—Tekcel GMean IC50
pIC50: −log10 of the molar value. Counter-ions that a name gives are not always drawn.
measurement_type: pIC50

[
  {
    "compound": "O=C(NC[C@H]1CC[C@H](n2cc3cnc(-c4cccnc4)cc3n2)CC1)c1cc(F)c(O)c(F)c1",
    "assay_result": 6.37
  },
  {
    "compound": "O=C(NC[C@H]1CC[C@H](n2cc3cc(OCC4CC4)ncc3n2)CC1)c1cc(F)c(O)c(F)c1 [Example 32, ammonium salt]",
    "assay_result": 6.40
  },
  {
    "compound": "Cn1cc(-c2ccc3cn([C@H]4CC[C@H](CNC(=O)c5cc(F)c(O)c(F)c5F)CC4)nc3c2)cn1 [Example 5, trifluoroacetate salt]",
    "assay_result": 7.14
  }
]

###

- system_tested: wild type human HSD17B13 (Homo sapiens (Human), UniProt Q7Z5P4)
- Sequence (Q7Z5P4 20-300): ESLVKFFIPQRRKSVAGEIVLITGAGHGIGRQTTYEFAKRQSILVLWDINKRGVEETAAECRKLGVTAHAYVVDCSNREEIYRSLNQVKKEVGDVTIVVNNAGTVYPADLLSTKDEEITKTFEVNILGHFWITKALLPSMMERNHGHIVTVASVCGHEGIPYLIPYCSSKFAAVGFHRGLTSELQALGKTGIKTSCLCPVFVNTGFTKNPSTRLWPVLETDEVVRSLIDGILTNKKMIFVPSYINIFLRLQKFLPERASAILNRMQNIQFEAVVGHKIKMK
- method: HEK_Beta-Est LCMS_IC50_Tekcel, whole-cell HEK-HSD17B13 inhibition assay, estrone production by LCMS
- test_parameters: geometric mean, HEK cells stably expressing wild type human HSD17B13, 25 μM FAC beta-estradiol, read-out: HEK_Beta-Est LCMS_IC50—Tekcel GMean IC50
Where a name gives a salt, the structure may show the parent alone.
Examples of molecules with documented IC50 follow.

[
  {
    "molecule": "COc1ccc(-c2noc([C@]34CC[C@](CNC(=O)c5cc(F)c(O)c(F)c5F)(CC3)CC4)n2)nn1",
    "system_tested": "wild type human HSD17B13 (Homo sapiens (Human), UniProt Q7Z5P4)",
    "measurement_units": "µM",
    "IC50": 0.22
  },
  {
    "molecule": "O=C(NC[C@H]1CC[C@H](c2nc3ccccc3o2)CC1)c1cc(F)c(O)c(F)c1",
    "system_tested": "wild type human HSD17B13 (Homo sapiens (Human), UniProt Q7Z5P4)",
    "measurement_units": "µM",
    "IC50": 0.49
  },
  {
    "molecule": "CCn1cc(-c2ccc3cn([C@H]4CC[C@H](CNC(=O)c5cc(F)c(O)c(F)c5F)CC4)nc3c2)cn1 [Example 150, trifluoroacetate salt]",
    "system_tested": "wild type human HSD17B13 (Homo sapiens (Human), UniProt Q7Z5P4)",
    "measurement_units": "µM",
    "IC50": 0.12
  },
  {
    "molecule": "O=C(NC[C@H]1CC[C@H](n2cc3cc(Cl)ccc3n2)CC1)c1cc(F)c(O)c(F)c1F",
    "system_tested": "wild type human HSD17B13 (Homo sapiens (Human), UniProt Q7Z5P4)",
    "measurement_units": "µM",
    "IC50": 0.19
  },
  {
    "molecule": "Cc1ccc2nn([C@H]3CC[C@H](CNC(=O)c4cc(F)c(O)c(F)c4)CC3)cc2c1",
    "system_tested": "wild type human HSD17B13 (Homo sapiens (Human), UniProt Q7Z5P4)",
    "measurement_units": "µM",
    "IC50": 0.27
  },
  {
    "molecule": "O=C(NC[C@H]1CC[C@H](c2nc(-c3ncc(C(F)(F)F)cn3)no2)CC1)c1cc(F)c(O)c(F)c1",
    "system_tested": "wild type human HSD17B13 (Homo sapiens (Human), UniProt Q7Z5P4)",
    "measurement_units": "µM",
    "IC50": 0.29
  },
  {
    "molecule": "O=C(NC[C@H]1CC[C@H](c2nc(-c3ncc(C(F)(F)F)cn3)no2)CC1)c1cc(F)c(O)cc1F",
    "system_tested": "wild type human HSD17B13 (Homo sapiens (Human), UniProt Q7Z5P4)",
    "measurement_units": "µM",
    "IC50": 0.31
  },
  {
    "molecule": "Cc1cccc(-c2noc([C@]34CC[C@](CNC(=O)c5cc(F)c(O)c(F)c5)(CC3)CC4)n2)n1",
    "system_tested": "wild type human HSD17B13 (Homo sapiens (Human), UniProt Q7Z5P4)",
    "measurement_units": "µM",
    "IC50": 0.23
  },
  {
    "molecule": "O=C(NC[C@H]1CC[C@H](n2cc3ccc(-c4ccn5ncnc5c4)cc3n2)CC1)c1cc(F)c(O)c(F)c1 [Example 119, trifluoroacetate salt]",
    "system_tested": "wild type human HSD17B13 (Homo sapiens (Human), UniProt Q7Z5P4)",
    "measurement_units": "µM",
    "IC50": 0.15
  },
  {
    "molecule": "Cn1cc(-c2ccc3nc([C@H]4CC[C@H](CNC(=O)c5cc(F)c(O)c(F)c5F)CC4)cn3c2)cn1",
    "system_tested": "wild type human HSD17B13 (Homo sapiens (Human), UniProt Q7Z5P4)",
    "measurement_units": "µM",
    "IC50": 0.35
  },
  {
    "molecule": "O=C(NC[C@H]1CC[C@H](n2cc3ccccc3n2)CC1)c1cc(F)c(O)c(F)c1",
    "system_tested": "wild type human HSD17B13 (Homo sapiens (Human), UniProt Q7Z5P4)",
    "measurement_units": "µM",
    "IC50": 0.39
  },
  {
    "molecule": "O=C(NC[C@H]1CC[C@H](n2cc3cc(-c4cnn(C(F)F)c4)ccc3n2)CC1)c1cc(F)c(O)c(F)c1F",
    "system_tested": "wild type human HSD17B13 (Homo sapiens (Human), UniProt Q7Z5P4)",
    "measurement_units": "µM",
    "IC50": 0.18
  },
  {
    "molecule": "O=C(NC[C@H]1CC[C@H](n2cc3ccc(C(F)(F)F)cc3n2)CC1)c1cc(F)c(O)c(F)c1 [Example 137, ammonium salt]",
    "system_tested": "wild type human HSD17B13 (Homo sapiens (Human), UniProt Q7Z5P4)",
    "measurement_units": "µM",
    "IC50": 0.28
  },
  {
    "molecule": "Cc1ncc(-c2ccc3cn([C@H]4CC[C@H](CNC(=O)c5cc(F)c(O)c(F)c5)CC4)nc3c2)cn1",
    "system_tested": "wild type human HSD17B13 (Homo sapiens (Human), UniProt Q7Z5P4)",
    "measurement_units": "µM",
    "IC50": 0.16
  },
  {
    "molecule": "COc1ccc(-c2ccc3cn([C@H]4CC[C@H](CNC(=O)c5cc(F)c(O)c(F)c5)CC4)nc3c2)cn1 [Example 108, trifluoroacetate salt]",
    "system_tested": "wild type human HSD17B13 (Homo sapiens (Human), UniProt Q7Z5P4)",
    "measurement_units": "µM",
    "IC50": 0.14
  }
]

###

- system_tested: UniProt Q7Z5P4
- method: HEK_Beta-Est LCMS_IC50_Tekcel, whole-cell HEK-HSD17B13 inhibition assay, estrone production by LCMS
- test_parameters: geometric mean, HEK cells stably expressing wild type human HSD17B13, 25 μM FAC beta-estradiol, read-out: HEK_Beta-Est LCMS_IC50—Tekcel GMean IC50
pIC50: −log10 of the molar value. Counter-ions that a name gives are not always drawn.

[
  {
    "molecule": "O=C(NC[C@H]1CC[C@H](n2cc3ccc(-c4cnn(C5CCOC5)c4)cc3n2)CC1)c1cc(F)c(O)c(F)c1 (stereo partly shown)",
    "pIC50": 6.82
  },
  {
    "molecule": "O=C(NC[C@H]1CC[C@H](n2cc3cc(F)ccc3n2)CC1)c1cc(F)c(O)c(F)c1 [Example 133, ammonium salt]",
    "pIC50": 6.55
  },
  {
    "molecule": "Cn1ncc(-c2ccc3cn([C@H]4CC[C@H](CNC(=O)c5cc(F)c(O)c(F)c5)CC4)nc3c2)n1",
    "pIC50": 6.89
  },
  {
    "molecule": "O=C(NC[C@]12CC[C@](c3noc(-c4cccc(OS(=O)(=O)F)c4)n3)(CC1)CC2)c1cc(F)c(O)c(F)c1",
    "pIC50": 6.38
  },
  {
    "molecule": "COc1cnc(-c2noc([C@]34CC[C@](CNC(=O)c5cc(F)c(O)c(F)c5)(CC3)CC4)n2)cn1",
    "pIC50": 6.85
  },
  {
    "molecule": "O=C(NC[C@]12CC[C@](c3nc(-c4cnc(C(F)(F)F)cn4)no3)(CC1)CC2)c1cc(F)c(O)cc1F",
    "pIC50": 6.82
  },
  {
    "molecule": "N#Cc1cccc(-c2ccc3nn([C@H]4CC[C@H](CNC(=O)c5cc(F)c(O)c(F)c5)CC4)cc3c2)c1",
    "pIC50": 6.77
  },
  {
    "molecule": "O=C(NC[C@]12CC[C@](c3nc(-c4ccc(C(F)(F)F)nn4)no3)(CC1)CC2)c1cc(F)c(O)c(F)c1",
    "pIC50": 6.74
  },
  {
    "molecule": "Cc1ccc(-c2noc([C@H]3CC[C@H](CNC(=O)c4cc(F)c(O)c(F)c4)CC3)n2)nn1",
    "pIC50": 5.57
  },
  {
    "molecule": "O=C(NC[C@H]1CC[C@H](n2cc3ccc(-c4ncc5c(n4)COC5)cc3n2)CC1)c1cc(F)c(O)c(F)c1",
    "pIC50": 6.85
  },
  {
    "molecule": "O=C(NC[C@H]1CC[C@H](n2cc3ccc(-n4cc(C(F)(F)F)cn4)cc3n2)CC1)c1cc(F)c(O)c(F)c1F [Example 11, trifluoroacetate salt]",
    "pIC50": 6.62
  },
  {
    "molecule": "O=C(NC[C@H]1CC[C@H](c2nc(-c3cnc(C(F)(F)F)cn3)no2)CC1)c1cc(F)c(O)cc1F",
    "pIC50": 6.37
  },
  {
    "molecule": "O=C(NC[C@]12CC[C@](n3cc4ccc(-c5cncnc5)cc4n3)(CC1)CC2)c1cc(F)c(O)c(F)c1",
    "pIC50": 6.82
  },
  {
    "molecule": "O=C(NC[C@H]1CC[C@H](n2cc3ccc(-c4cnn(C(F)F)c4)cc3n2)CC1)c1cc(F)c(O)c(F)c1",
    "pIC50": 7.04
  },
  {
    "molecule": "O=C(NC[C@H]1CC[C@H](n2cc3ccc(-c4ccccn4)cc3n2)CC1)c1cc(F)c(O)c(F)c1",
    "pIC50": 6.68
  },
  {
    "molecule": "O=C(NC[C@H]1CC[C@H](n2cc3ccc(-c4cnn(CC(F)F)c4)cc3n2)CC1)c1cc(F)c(O)c(F)c1 [Example 10, trifluoroacetate salt]",
    "pIC50": 6.92
  }
]
